- TARGET_OR_TEST_SYSTEM: F protein of wild type RSV A/Long (respiratory syncytial virus strain …, UniProt P12568 26-574)
- Sequence (P12568 26-574): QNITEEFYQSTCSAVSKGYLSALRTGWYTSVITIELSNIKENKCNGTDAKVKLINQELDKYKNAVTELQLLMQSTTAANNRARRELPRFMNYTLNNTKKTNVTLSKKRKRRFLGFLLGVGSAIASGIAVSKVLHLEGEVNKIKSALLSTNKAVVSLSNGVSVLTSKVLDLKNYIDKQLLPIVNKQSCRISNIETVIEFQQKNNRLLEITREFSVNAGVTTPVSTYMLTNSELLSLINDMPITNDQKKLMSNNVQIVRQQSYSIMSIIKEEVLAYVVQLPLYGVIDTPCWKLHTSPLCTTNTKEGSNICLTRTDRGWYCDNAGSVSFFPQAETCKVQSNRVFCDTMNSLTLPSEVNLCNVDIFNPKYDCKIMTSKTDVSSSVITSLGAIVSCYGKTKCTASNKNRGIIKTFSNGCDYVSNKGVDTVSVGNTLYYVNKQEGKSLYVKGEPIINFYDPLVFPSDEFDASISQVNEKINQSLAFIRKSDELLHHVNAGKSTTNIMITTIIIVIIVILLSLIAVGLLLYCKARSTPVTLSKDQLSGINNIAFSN
- EXPERIMENT_SUMMARY: cell-based or functional assay
Mean IC50 (Control), RSV microneutralization of 0.04 µg/mL or higher: 1.0. Under 0.04 µg/mL: 0.0.

These recorded examples may help you get a feel for the data.
BINDER	ASSIGNED_CLASS
A12a6 (Fab fragment) (Fab, V domains shown, Fab) VH: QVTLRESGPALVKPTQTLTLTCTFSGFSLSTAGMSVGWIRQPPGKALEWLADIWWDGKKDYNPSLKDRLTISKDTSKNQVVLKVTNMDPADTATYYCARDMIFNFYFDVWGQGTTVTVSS VL: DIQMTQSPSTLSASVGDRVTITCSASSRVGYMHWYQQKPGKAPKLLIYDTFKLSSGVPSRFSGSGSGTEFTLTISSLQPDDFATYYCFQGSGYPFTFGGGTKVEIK	0.0
A1h5 (Fab fragment) (Fab, V domains shown) VH: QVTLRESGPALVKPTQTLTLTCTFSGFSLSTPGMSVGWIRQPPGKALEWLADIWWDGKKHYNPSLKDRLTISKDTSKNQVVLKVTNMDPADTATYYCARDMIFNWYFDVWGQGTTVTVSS VL: DIQMTQSPSTLSASVGDRVTITCSLSSSVGYMHWYQQKPGKAPKLLIYDTFFHRSGVPSRFSGSGSGTEFTLTISSLQPDDFATYYCFQGSGYPFTFGGGTKLEIK	1.0
A13a11 (Fab fragment) (Fab, V domains shown, Fab) VH: QVTLRESGPALVKPTQTLTLTCTFSGFSLSTAGMSVGWIRQPPGKALEWLADIWWDDKKHYNPSLKDRLTISKDTSKNQVVLKVTNMDPADTATYYCARDMIFNWYFDVWGAGTTVTVSS VL: DIQMTQSPSTLSASVGDRVTITCSASSSVGYMHWYQQKPGKAPKLLIYDTYRHASGVPSRFSGSGSGTEFTLTISSLQPDDFATYYCFQGSGYPFTFGGGTKLEIK	1.0

# input Does the binder A8c7 (monoclonal antibody) (antibody, V domains shown, mAb with framework and constant regions of SYNAGIS) VH: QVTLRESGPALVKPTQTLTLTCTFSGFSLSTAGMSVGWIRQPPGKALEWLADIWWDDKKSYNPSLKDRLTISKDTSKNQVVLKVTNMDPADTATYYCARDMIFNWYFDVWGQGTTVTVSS VL: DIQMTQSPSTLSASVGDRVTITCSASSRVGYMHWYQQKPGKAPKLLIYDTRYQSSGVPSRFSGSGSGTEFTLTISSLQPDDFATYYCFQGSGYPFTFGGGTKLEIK have recorded Mean IC50 (Control), RSV microneutralization that is 0.04 µg/mL or more?
# output 0.0

# input Does the binder A4B4 (monoclonal antibody) (antibody, V domains shown, mAb; also called A4B4/A4B4 (HC/LC)) VH: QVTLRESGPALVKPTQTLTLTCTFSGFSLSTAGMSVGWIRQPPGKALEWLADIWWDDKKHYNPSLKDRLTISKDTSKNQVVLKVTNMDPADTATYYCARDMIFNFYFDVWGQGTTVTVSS VL: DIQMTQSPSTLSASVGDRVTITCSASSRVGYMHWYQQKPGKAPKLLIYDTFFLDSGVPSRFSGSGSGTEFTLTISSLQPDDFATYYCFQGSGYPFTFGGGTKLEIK have recorded Mean IC50 (Control), RSV microneutralization that is 0.04 µg/mL or more?
# output 0.0

The reported numbers originate from patent US20030091584A1.
